Value source: PubChem BioAssay

# ASSAY_NAME: TLR3 IRF3 reporter activation blockers – cell-based, poly I:C stimulus, luciferase, 10K MLSCN set, primary screen (AID 602277)
# TEST_PARAMETERS: HEK293-TLR3 RL24 IRF3 luciferase reporter, at 10 µM, stronger effect = higher value
Mark Condition not met for inhibition values under 10%, and Condition met for everything at or above.

The examples below pair each entry with its known result.
MOLECULE | LABEL
COc1ccccc1OCC(=O)NCC1CCCCC1 | Condition not met
COC(=O)C1C(=O)c2c([nH]c(C(=O)OCCOC(C)C)c2C)CC1C (stereo unspecified) | Condition not met

Query block: Can CCCCOc1ccc(S(=O)(=O)n2c(C)nc3ccccc32)cc1 be said to have inhibition at or above 10%?
Result block: Condition met

Query block: Check the entry O=C(CSc1ccc2nnc(-c3ccccc3)n2n1)N1CCN(c2ccccc2)CC1 : does inhibition equal or exceed 10%?
Result block: Condition not met

Query block: Entry CCOC(=O)CSc1nnc([C@H](C)NC(=O)OC(C)(C)C)o1 : is its inhibition no less than 10%?
Result block: Condition met

Query block: Can COc1cc(C(=O)N2CCC(NC(=O)C(Cc3ccc(C)cc3)NC(C)=O)CC2)cc(OC)c1OC (stereo unspecified) be said to have inhibition at or above 10%?
Result block: Condition met

Query block: Dear colleague, could you confirm whether CCNc1nc(N2CCOCC2)nc(N(c2ccccc2)c2ccccc2)n1 has inhibition at or above 10%?
Result block: Condition met

Query block: Record O=C(O)c1ccc(COc2ccc(Cl)cc2)o1 ; criterion: inhibition no lower than 10%. Met?
Result block: Condition not met

----------
# ASSAYED_SYSTEM: Voltage-gated potassium channel subunit beta-2 (Rattus norvegicus) (UniProt P62483)
# Sequence (P62483 whole entry, looked up): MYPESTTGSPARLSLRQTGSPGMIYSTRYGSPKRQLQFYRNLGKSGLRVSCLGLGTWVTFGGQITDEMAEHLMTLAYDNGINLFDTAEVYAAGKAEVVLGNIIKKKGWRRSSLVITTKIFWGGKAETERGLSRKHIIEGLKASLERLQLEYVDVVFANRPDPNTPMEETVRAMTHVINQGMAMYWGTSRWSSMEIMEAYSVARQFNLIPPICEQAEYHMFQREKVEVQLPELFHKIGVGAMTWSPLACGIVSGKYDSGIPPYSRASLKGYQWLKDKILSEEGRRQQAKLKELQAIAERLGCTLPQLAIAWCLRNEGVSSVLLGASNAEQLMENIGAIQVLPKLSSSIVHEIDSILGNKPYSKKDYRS
# ASSAY_NAME: inhibitors of rat Kvbeta2 reductase activity – biochemical, NADPH fluorescence, primary screen (AID 622);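 note: slope of raw intensity against log time taken from 70 to 1610 s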
# TEST_PARAMETERS: recombinant KvBeta, 4-cyanobenzaldehyde reduction, at 10 µM
Activity calls are given as the source filed them.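 The calls were made as follows: active = fluorescence slope higher than the sample average by over 3 SD (cut at about -0.22 in these data, passing the limit was not always enough); inactive = the rest.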 Where a SMILES comes first, the peptide text is derived from it. [ ]: non-standard residue; d: D form. The star is where a group is joined. ξ: configuration not given here. Cbz = O=C(OCc1ccccc1)*; ξK = NCCCCC(N)C(=O)O
Your response should consist of one outcome taken from class 1 (active), class 0 (inactive)

Before answering, review these 10 worked examples.
MOLECULE | LABEL
COC(=O)C(CCCCNC(=O)OCc1ccccc1)NC(=O)CN (stereo not drawn) (H-Gly-[ξK](Cbz)-OMe) | class 0
Cn1c(-c2ccc(C(C)(C)C)cc2)n[nH]c1=S | class 0
CCOC(=O)Cc1nnc(NC(=O)c2ccccc2OCC)s1 | class 0
COc1ccc(-n2ncc3c(N4CCC(C)CC4)ncnc32)cc1 | class 0
CCOC(=O)N1CCC2(O)CCCCC2C1c1ccc(F)cc1 (stereo not drawn) | class 0
CCCC(=O)Nc1cc(C)c(NC(=O)c2ccccn2)cn1 | class 0
CCC(CC)C(=O)NCCc1cc2ccc(C)cc2[nH]c1=O | class 0
Cc1ccc(Cn2c(CN3CCOCC3)nc3c2c(=O)n(C)c(=O)n3C)cc1 | class 0
CCC(C)C(=O)Nc1nc2c(s1)C(=O)CC(C)(C)C2 (stereo not drawn) | class 0
CCOC(=O)c1ccccc1NC(=O)c1ccc2c(=O)n3c(nc2c1)CCCCC3 | class 0

Query block: Write down the call the test reported for this molecule. Item: COc1ccc(-c2nc(C#N)c(NCCCN(C)C)o2)cc1OC
Result block: class 1

Query block: Write down the call the test reported for this molecule. Item: CCOC(=O)CSc1ncnc2c1cnn2-c1ccc(C)cc1
Result block: class 0

Query block: Returns: the outcome recorded for Cc1cc(C)n(-c2ccc(C(=O)Oc3ccc4c(c3)OCO4)cc2)n1 in this assay.
Result block: class 0

Query block: # fetch the recorded call for O=C(CN1CCN(Cc2ccc(F)cc2Cl)C1=O)NCCCN1CCOCC1 here
Result block: class 0

Query block: What is the recorded call for this molecule in the test? CC1(C)COCN1S(=O)(=O)c1ccc(C(=O)Nc2nnc(-c3ccc(Cl)s3)o2)cc1
Result block: class 0

Query block: Hi, do you know how CCN(CC)CCOC(=O)c1c(C)oc2ccc(O)cc12 came out in this test?
Result block: class 0

Query block: State the result this test recorded for CN1CCN(CC(=O)N2c3ccccc3C(C)(c3ccccc3)CC2(C)C)CC1 (stereo not drawn) .
Result block: class 0

Query block: Status in this test for c1ccc(Oc2ccc(-n3cnnn3)cc2)cc1 ?
Result block: class 0

Query block: Kindly provide the recorded test outcome for the following molecule: CN(C)c1ccc2c(c1)OC(N)=C(C#N)C2c1cccc(F)c1 (stereo not drawn)
Result block: class 0

Query block: Write down the call the test reported for this molecule. Item: COCCOC(=O)c1c(C)oc2ccc(NS(=O)(=O)c3ccc(F)cc3)cc12
Result block: class 0

----------
I'd be grateful if you could share measured nuclei count for these entries.
# ASSAY_NAME: reduction of polyQ htt aggregates in cells – imaging, exon1htt(103Q)mCFP cells, high-content imaging, primary screen (AID 483);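 note: compound exposure lasted 3 days before fixation; percent of the per-plate median nuclei count of sample wells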
# TEST_PARAMETERS: exon1htt(103Q)mCFP cell line, aggregate imaging, at 2 µM; measured here: cell count, toxicity
Give bare numbers, in %.

Solved entries:
SMILES_NOTATION | MEASUREMENT_LABEL | UNIT_TAG | NUMBER
CCN(CC)CCCNC(=O)c1cn(C)c2ccc(S(=O)(=O)N(C)C)cc2c1=O | nuclei count | % | 73.6
COC(=O)c1cc(Br)c(=O)n(-c2ccc(OC)cc2)c1 | nuclei count | % | 108
CCOC(=O)c1ccc(N(CC(=O)NC2CCCC2)C(=O)CNC(=O)c2ccco2)cc1 | nuclei count | % | 79.3
O=C(NCc1ccco1)c1csc(Nc2ccccc2Cl)n1 | nuclei count | % | 118
Cc1cccc2sc(NC(=O)CN(C)S(=O)(=O)c3cccs3)nc12 | nuclei count | % | 114

Now take the following compound into account.
Query block: State, in one line, measured nuclei count of O=C(CSc1nc2ccccc2o1)Nc1ccccc1
Result block: 100

----------
# ASSAYED_SYSTEM: Voltage-gated potassium channel subunit beta-2 (Rattus norvegicus) (UniProt P62483)
# ASSAY_NAME: inhibitors of rat Kvbeta2 reductase activity – biochemical, NADPH fluorescence, primary screen (AID 622);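 note: slope of raw intensity against log time taken from 70 to 1610 s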
# TEST_PARAMETERS: recombinant KvBeta, 4-cyanobenzaldehyde reduction, at 10 µM, stronger effect = higher value
Active and inactive are the calls of the source.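 How the source made its calls: active means fluorescence slope higher than the sample average by over 3 SD (cut at about -0.22 in these data, passing the limit was not always enough); inactive means the rest.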
MEASUREMENT_LABEL: fluorescence slope

Solved cases below.
COMPOUND | ASSAYED_SYSTEM | RESULT
c1cc(CNc2ccc3c(c2)OCO3)ccn1 | Voltage-gated potassium channel subunit beta-2 (Rattus norvegicus) (UniProt P62483) | -0.48 (inactive)
COc1cc2c(cc1OC)CN(C(=O)CSc1nc3[nH]ncc3c(=O)n1-c1ccccc1)CC2 | Voltage-gated potassium channel subunit beta-2 (Rattus norvegicus) (UniProt P62483) | -0.492 (inactive)
O=C(Nc1ccc(-c2noc(-c3cccs3)n2)cc1)c1cccnc1 | Voltage-gated potassium channel subunit beta-2 (Rattus norvegicus) (UniProt P62483) | -0.474 (inactive)
COC(=O)c1ccc(NC(=O)Cn2nnc3ccccc32)cc1 | Voltage-gated potassium channel subunit beta-2 (Rattus norvegicus) (UniProt P62483) | -0.377 (inactive)
Cc1c(Cl)cnc(NC(=O)COC(=O)C(NC(=O)c2ccco2)C(C)C)c1Cl (stereo not drawn) | Voltage-gated potassium channel subunit beta-2 (Rattus norvegicus) (UniProt P62483) | -0.584 (inactive)

Batch lookup, fluorescence slope per entry.
1. Cc1ccc2c(c1)N(CC(=O)Nc1ccc3c(c1)OCCO3)C(=O)CO2
2. CC(=O)OC(C(=O)NC1CCCCC1)c1ccncc1 (stereo not drawn)

Result block:
-0.293 (inactive)
-0.498 (inactive)

Hi there! I need fluorescence slope for each item below, if you can.
1. O=C(c1ccco1)N1CCN(/C(=N/S(=O)(=O)c2cccs2)c2ccccc2Cl)CC1
2. CCN1C(=O)Cc2cc(S(=O)(=O)N3CCOCC3)ccc21
3. CC1=C(C(N)=O)C(c2ccccn2)n2nc(SCc3ccccc3)nc2N1 (stereo not drawn)
4. CCOC(=O)N1CCC(NC(=O)CSCc2nc(-c3cccc(OC)c3)oc2C)CC1
5. CCOC(=O)c1cnn(-c2cc(C)nc3c(-c4ccccc4)c(C)nn23)c1N
6. COCCn1c(C)cc(C(=O)COC(=O)c2n[nH]c3ccccc23)c1C
7. CCCCn1c(CN2CCN(c3ccccc3)CC2)nc2c1c(=O)n(C)c(=O)n2C
8. COc1ccc(S(=O)(=O)N2CCSC2c2ccccc2)cc1 (stereo not drawn)

Result block:
-0.491 (inactive)
-0.435 (inactive)
-0.316 (inactive)
-0.498 (inactive)
-0.625 (inactive)
-0.5 (inactive)
-0.542 (inactive)
-0.463 (inactive)

----------
# ASSAY_NAME: inhibitors of TNFa-induced NFkB p65 translocation, primary screen, imaging, HUVEC, MLSMR starter and 10KST1 sets (AID 438);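 note: compound added about 3h40 before a 20 min TNFalpha stimulation; signal is the nuclear over cytoplasmic p65 intensity ratio per well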
# TEST_PARAMETERS: HUVEC TNFa-induced p65 nuclear translocation; at 2 µM, stronger effect = higher value, 0% TNFa-plus-vehicle, 100% no-TNFa wells
For each of the compounds below, state its inhibition.
Answers are plain numbers, in %.

COMPOUND | inhibition / %
COc1ccccc1N1CCN(C(=O)N2CCOCC2)CC1 | -8.1
CCC(=O)N(CCCN(C)C)c1nc(-c2cc(OC)ccc2OC)cs1 | 7.8
OC(COc1ccccc1)CN1C2=NCCCN2c2ccccc21 (stereo unspecified) | 1.6
Nc1c(C(=O)NCCN2CCOCC2)c2nc3ccccc3nc2n1-c1ccc2c(c1)OCO2 | -8.4
Cc1cccn2c(=O)c3cc(C(=O)NC4CCCC4)c(=N)n(C4CCCC4)c3nc12 | 2.4

Query block: Fill in reported inhibition for this entry: CCc1nnc(NC(=O)CN2CCN(c3ccccc3OC)CC2)s1
Result block: 6.2
